- Tested on: Ramos-2G6-4C10 (Burkitt's Lymphoma)
- Procedure Summary: Bliss excess, mean over the matrix (fraction); higher = more synergy;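 also: after 72 h of two-drug dosing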
Measurement Name: Bliss excess
Respond using a number only.

Query :: For the compound shown here, CC(=O)Nc1cccc(-n2c(=O)n(C3CC3)c(=O)c3c(Nc4ccc(I)cc4F)n(C)c(=O)c(C)c32)c1 [Trametinib] + Cc1nc(-c2cn3c(n2)-c2ccc(-c4cnn(C(C)(C)C(N)=O)c4)cc2OCC3)n(C(C)C)n1 [Taselisib] (first compound max 1 µM, 7x7, partner max 10 µM) , give the reported Bliss excess.
Result :: -0.0053

Query :: For the compound shown here, CCN(CCO)CCCOc1ccc2c(Nc3cc(CC(=O)Nc4cccc(F)c4)[nH]n3)ncnc2c1 [AZD2811] + O=C(c1cc(Cc2n[nH]c(=O)c3ccccc23)ccc1F)N1CCN(C(=O)C2CC2)CC1 [Olaparib] (first compound max 1 µM, 7x7, partner max 10 µM) , give the reported Bliss excess.
Result :: 0.0573

Query :: For the compound shown here, COc1cccc(OCCCN)c1-c1cc(Nc2cnc(C#N)cn2)n[nH]1 [Prexasertib] + C=CCn1c(=O)c2cnc(Nc3ccc(N4CCN(C)CC4)cc3)nc2n1-c1cccc(C(C)(C)O)n1 [AZD1775] (first compound max 1 µM, partner max 1 µM) , give the reported Bliss excess.
Result :: 0.112

Query :: For the compound shown here, C=CCn1c(=O)c2cnc(Nc3ccc(N4CCN(C)CC4)cc3)nc2n1-c1cccc(C(C)(C)O)n1 [AZD1775] + Nc1ccn([C@@H]2O[C@H](CO)[C@@H](O)C2(F)F)c(=O)n1 [Gemcitabine] (first compound max 1 µM, partner max 0.3 µM) , give the reported Bliss excess.
Result :: 0.186

---

- Tested on: ME-1 (Acute Myeloid Leukemia)
- Procedure Summary: Bliss excess, mean over the matrix (fraction); higher = more synergy
Labels assigned by Bliss excess range: interval 1 = under -0.01, interval 2 = from -0.01 up to -0.004, interval 3 = -0.004 and over

Query :: Which class does C=CCn1c(=O)c2cnc(Nc3ccc(N4CCN(C)CC4)cc3)nc2n1-c1cccc(C(C)(C)O)n1 [AZD1775] + Nc1ccn([C@@H]2O[C@H](CO)[C@@H](O)C2(F)F)c(=O)n1 [Gemcitabine] (first compound max 1 µM, partner max 0.3 µM) fall in?
Result :: interval 2

Query :: Which class does CC1(C)CCC(CN2CCN(c3ccc(C(=O)NS(=O)(=O)c4ccc(NCC5CCOCC5)c([N+](=O)[O-])c4)c(Oc4cnc5[nH]ccc5c4)c3)CC2)=C(c2ccc(Cl)cc2)C1 [Venetoclax] + Cn1cnc2c(F)c(Nc3ccc(Br)cc3Cl)c(C(=O)NOCCO)cc21 [Selumetinib] (first compound max 1 µM, 7x7, partner max 3 µM) fall in?
Result :: interval 3

Query :: Which class does COc1cccc(OCCCN)c1-c1cc(Nc2cnc(C#N)cn2)n[nH]1 [Prexasertib] + O=C(c1cc(Cc2n[nH]c(=O)c3ccccc23)ccc1F)N1CCN(C(=O)C2CC2)CC1 [Olaparib] (first compound max 1 µM, 7x7, partner max 10 µM) fall in?
Result :: interval 1

Query :: Which class does N#Cc1cnc(Nc2cc(NC[C@H]3CNCCO3)c(C(F)(F)F)cn2)cn1 [SRA737] + C=CCn1c(=O)c2cnc(Nc3ccc(N4CCN(C)CC4)cc3)nc2n1-c1cccc(C(C)(C)O)n1 [AZD1775] (first compound max 10 µM, partner max 1 µM) fall in?
Result :: interval 3

Query :: Which class does CN(CCO)CC[C@H](CSc1ccccc1)Nc1ccc(S(=O)(=O)NC(=O)c2ccc(N3CCC([C@@H](O)c4ccccc4-c4ccc(Cl)cc4)CC3)cc2)cc1S(=O)(=O)C(F)(F)F [AZD4320] + Nc1ccn([C@@H]2O[C@H](CO)[C@@H](O)C2(F)F)c(=O)n1 [Gemcitabine] (first compound max 1 µM, 7x7, partner max 0.3 µM) fall in?
Result :: interval 3

Query :: Which class does CCc1c2c(nc3ccc(O)cc13)-c1cc3c(c(=O)n1C2)COC(=O)[C@]3(O)CC [SN-38] + CN(C)CCCOc1ccc(-c2ccc3ncc4c(c3c2)n(C2CCOCC2)c(=O)n4C)cn1 [AZD0156] (first compound max 0.3 µM, 7x7, partner max 1 µM) fall in?
Result :: interval 2

Query :: Which class does COc1nnc2ccc(N3CCC(c4ccc(OCCN5CCN(C)C(=O)[C@H]5C)cc4)CC3)nn12 [AZD5153] + C[C@@H]1COCCN1C2=NC(=NC(=C2)C3(CC3)[S@](=N)(=O)C)C4=C5C=CNC5=NC=C4 [AZD6738] (first compound max 1 µM, 7x7, partner max 10 µM) fall in?
Result :: interval 1

Query :: Which class does Cc1nc(-c2cn3c(n2)-c2ccc(-c4cnn(C(C)(C)C(N)=O)c4)cc2OCC3)n(C(C)C)n1 [Taselisib] + O=C(Nc1ccc2[nH]nc(-c3ccncc3)c2c1)[C@@H]1CCN(CC(=O)N2CCN(c3ccc(-c4ncccn4)cc3)CC2)C1 [SCH772984] (first compound max 10 µM, 7x7, partner max 5 µM) fall in?
Result :: interval 3

Query :: Which class does Cc1cc2ncnn2cc1Nc1ncc2c(n1)n(C1CCOCC1)c(=O)n2C [AZD7648] + CN(C)CCCOc1ccc(-c2ccc3ncc4c(c3c2)n(C2CCOCC2)c(=O)n4C)cn1 [AZD0156] (first compound max 10 µM, 7x7, partner max 1 µM) fall in?
Result :: interval 1

Query :: Which class does NC1(C(=O)N[C@@H](CCO)c2ccc(Cl)cc2)CCN(c2ncnc3[nH]ccc23)CC1 [Capivasertib] + C[C@@H]1COCCN1C2=NC(=NC(=C2)C3(CC3)[S@](=N)(=O)C)C4=C5C=CNC5=NC=C4 [AZD6738] (first compound max 10 µM, 7x7, partner max 10 µM) fall in?
Result :: interval 2

Query :: Which class does NC1(C(=O)N[C@@H](CCO)c2ccc(Cl)cc2)CCN(c2ncnc3[nH]ccc23)CC1 [Capivasertib] + CC(C)n1c(=O)n(C)c2cnc3cc(F)c(-c4ccc(OCCCN5CCCCC5)nc4)cc3c21 [AZD1390] (first compound max 10 µM, 7x7, partner max 0.3 µM) fall in?
Result :: interval 1

Query :: Which class does CC1(C)CCC(CN2CCN(c3ccc(C(=O)NS(=O)(=O)c4ccc(NCC5CCOCC5)c([N+](=O)[O-])c4)c(Oc4cnc5[nH]ccc5c4)c3)CC2)=C(c2ccc(Cl)cc2)C1 [Venetoclax] + CCN(CCO)CCCOc1ccc2c(Nc3cc(CC(=O)Nc4cccc(F)c4)[nH]n3)ncnc2c1 [AZD2811] (first compound max 1 µM, 7x7, partner max 1 µM) fall in?
Result :: interval 1

Query :: Which class does NC1(C(=O)N[C@@H](CCO)c2ccc(Cl)cc2)CCN(c2ncnc3[nH]ccc23)CC1 [Capivasertib] + Cn1cnc2c(F)c(Nc3ccc(Br)cc3Cl)c(C(=O)NOCCO)cc21 [Selumetinib] (first compound max 10 µM, 7x7, partner max 10 µM) fall in?
Result :: interval 2

Entry source: the supplement of paper PMC11061612
